assay_notes: Drug repurposing screens with cells derived from glioblastoma tumor samples (AID 1345199); further: on the % scale 0 is the no-effect control and ±100 the full control effect
experimental_setup: GBM patient neurospheres viability, ATP luminescence, 48 h; at 46 µM (top of the series); tumour line A
Results filed as inconclusive are left out. Where a SMILES comes first, the peptide text is derived from it. Bridges are numbered along the chain shown (N, C = ends).
measured_endpoint: activity, negative = cell killing (%)

[
  {
    "compound": "NCCCC[C@H](NC(=O)[C@@H]1CCCN1C(=O)[C@@H]1CSSC[C@H](N)C(=O)N[C@@H](Cc2ccc(O)cc2)C(=O)N[C@@H](Cc2ccccc2)C(=O)N[C@@H](CCC(N)=O)C(=O)N[C@@H](CC(N)=O)C(=O)N1)C(=O)NCC(N)=O",
    "readout_number": -33.8
  },
  {
    "compound": "O=C(O)c1cc2ccccc2c(Cc2c(O)c(C(=O)O)cc3ccccc23)c1O",
    "readout_number": -27.5
  },
  {
    "compound": "C[C@H](CSC(=O)c1ccccc1)C(=O)N1C[C@@H](Sc2ccccc2)C[C@H]1C(=O)O",
    "readout_number": -16.6
  },
  {
    "compound": "NCCCC[C@H](NC(=O)[C@@H]1CCCN1C(=O)[C@@H]1CSSC[C@H](NC(=O)CNC(=O)CNC(=O)CN)C(=O)N[C@@H](Cc2ccc(O)cc2)C(=O)N[C@@H](Cc2ccccc2)C(=O)N[C@@H](CCC(N)=O)C(=O)N[C@@H](CC(N)=O)C(=O)N1)C(=O)NCC(N)=O (H-GGGCYFQNCPKG-NH2; disulfide 4-9)",
    "readout_number": -28
  },
  {
    "compound": "O=C(Cn1cnnn1)N[C@@H]1C(=O)N2C(C(=O)O)=C(CSc3nncs3)CS[C@H]12",
    "readout_number": -29.3
  },
  {
    "compound": "CCCCC(=O)O",
    "readout_number": -15.7
  }
]
